minimal effective dose overview
System: Rattus norvegicus
Experiment: Antiimplantation activity as minimum effective dose after subcutaneous administration.
Assay type: functional
Settings: sc, read-out: MED
# output: bare number, implied unit mg/kg

See these solved cases before continuing.
molecule="C#C[C@]1(O)CCC(C2CCc3cc(OC)ccc3C2)C1(C)C (stereo not given in full)" tested_system="Rattus norvegicus" uom=mg/kg test_value=0.025
molecule=C[C@]12CC[C@@H]3c4ccc(O)cc4CC[C@H]3[C@@H]1CC[C@@H]2O tested_system="Rattus norvegicus" uom=mg/kg test_value=0.015

Provide value of minimal effective dose for this record tested with Rattus norvegicus: C#C[C@]1(O)CCC(C2CCc3cc(O)ccc3C2)C1(C)C (stereo not given in full)
0.025

Form: Entry = CC1(C)C(O)CCC1C1CCc2cc(O)ccc2C1 (stereo not given) | System = Rattus norvegicus | minimal effective dose = ____
0.01

minimal effective dose of COc1ccc2c(c1)CCC(C1CCC(O)C1(C)C)C2 (stereo not given) on Rattus norvegicus?
1.5
